B1: Histidine--tRNA ligase, cytoplasmic, residues 8 to 45; numbered along this chain, P12081 (parent)
chain: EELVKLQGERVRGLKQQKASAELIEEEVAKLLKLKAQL

variants of: B1; experiment: abundance fitness (aPCA) (normalised: wild type 0, dead -1); higher = more abundant; growth selection in yeast, the domain comes from the species named; details: Homo sapiens
Attribute: abundance fitness
observation_type: abundance fitness

> print(dat)
    variant.spec  reported.measurement
 1          S20N                 0.026
 2           G8A                 0.101
 3           E2G                -0.868
 4           G8M                 0.106
 5           E9D                -0.001
 6           Q7M                -0.452
 7          L31A                -0.084
 8          K33C                -0.451
 9          L14Q                -0.173
10          K30M                -0.234
11          K35G                  0.78
12          A21R                -0.086
13           E9W                -0.726
14          L23N                 -0.04
15          V11G                -0.121
16          E26K                 0.184
17          K30I                -0.232
18          R12T                  0.05
19          A19S                 -0.21
20           L6K                 0.155
21           Q7T                -0.357
22           E2K                -0.703
23          E22L                -0.149
24          K15H                -0.127
25          E22M                -0.046
26          R12H                 0.005
27           L6G                -0.171
28          L38F                -0.526
29           Q7S                -0.433
30          S20F                 -1.09
31           E9R                -0.464
32          K30F                -0.722
33          R10Y                -0.125
34          K35N                 0.597
35          A29I                -0.618
36          Q37R                -0.143
37           K5S                -0.531
38          A19C                -0.034
39          A21W                 -0.49
40          Q17P                -0.369
41          R10P                 0.053
42          I24K                     0
43          L31V                -0.436
44          K35V                 0.271
45          K33A                -0.081
46          E25G                -0.052
